From: patent US7741351B2

SYSTEM TESTED: human GluR2 flip (unedited) AMPA receptor subunit (Homo sapiens)
Sequence (P42262 25-883 isoform P42262-2 limits assumed): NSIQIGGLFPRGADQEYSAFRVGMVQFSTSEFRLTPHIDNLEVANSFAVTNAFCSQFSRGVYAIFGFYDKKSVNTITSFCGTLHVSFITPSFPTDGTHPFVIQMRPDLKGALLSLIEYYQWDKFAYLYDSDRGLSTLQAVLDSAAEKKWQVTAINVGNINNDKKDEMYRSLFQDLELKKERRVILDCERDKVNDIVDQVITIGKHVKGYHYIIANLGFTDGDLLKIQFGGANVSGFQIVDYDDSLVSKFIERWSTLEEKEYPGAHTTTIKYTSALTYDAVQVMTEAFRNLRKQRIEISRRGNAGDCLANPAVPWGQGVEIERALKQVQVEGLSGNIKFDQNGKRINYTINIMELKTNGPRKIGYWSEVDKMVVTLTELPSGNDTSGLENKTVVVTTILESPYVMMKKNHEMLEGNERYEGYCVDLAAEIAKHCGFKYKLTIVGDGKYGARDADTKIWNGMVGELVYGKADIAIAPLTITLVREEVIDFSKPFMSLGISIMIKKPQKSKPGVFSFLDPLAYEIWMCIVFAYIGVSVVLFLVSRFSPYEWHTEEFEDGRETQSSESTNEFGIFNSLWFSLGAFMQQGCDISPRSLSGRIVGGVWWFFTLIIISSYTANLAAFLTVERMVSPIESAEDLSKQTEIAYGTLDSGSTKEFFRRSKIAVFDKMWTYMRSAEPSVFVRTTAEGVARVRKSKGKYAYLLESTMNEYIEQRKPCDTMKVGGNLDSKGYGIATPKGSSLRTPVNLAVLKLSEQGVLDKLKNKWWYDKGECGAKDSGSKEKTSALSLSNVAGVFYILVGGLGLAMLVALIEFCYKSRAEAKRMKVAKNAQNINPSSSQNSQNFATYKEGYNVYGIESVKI
METHOD SUMMARY: Calcium influx fluorescence assay (FLUO4, potentiation of glutamate response)
CONDITION INFO: Assay a); HEK 293 cells expressing human GluR2 flip (unedited); 100 μM glutamate final; peak fluorescence
METRIC: pEC50
The value called pEC50 is obtained by taking minus log10 of the concentration in mol/L.

Q. Name the reported pEC50 value associated with the compound CCS(=O)(=O)Nc1cccc(-c2ccc3c(c2)CC(NS(=O)(=O)C(C)C)C3)c1 (stereo not shown)
A. 5.50
